outcomeMeasure: melting point

Use the examples below as a reference point.
| molecule | melting point |
| --- | --- |
| O=C(O)c1cccc(Sc2cccc(Br)c2)n1 | 113 to 115 °C |
| O=[N+]([O-])c1ccccc1S(=O)(=O)N1CCNCC1 | 147 to 149 °C |
| COCCn1c(C)cc(C(=O)CCl)c1C | 87 to 91 °C |

The reported value for `Nc1nnc(Cc2cccc(F)c2)o1` in terms of melting point is 146 to 148 °C

The reported value for `CNCc1cccc(O)c1` in terms of melting point is 144 to 146 °C

The reported value for `Cc1cc(C=O)c(C)n1C1CC1` in terms of melting point is 71 to 75 °C

The reported value for Cc1ccc(NC(=O)NCC2CCCNC2)cc1 (stereo unspecified) in terms of melting point is 161 to 163 °C

The reported value for `CN1CCN(C(=O)c2ccc(C#N)cn2)CC1` in terms of melting point is 83 to 85 °C
